Data origin: ChEMBL document CHEMBL1201862

- Test system: UACC-257
- test.protocol: NCI tumour cell line growth inhibition, 48 h
Calls of active or inactive are those of the source. No stated cut-off is given here; in the data, active = GI50 up to about 1.1 µM and inactive = higher.
property: GI50

| compound | GI50 |
| --- | --- |
| CN(C)c1ccc(C(C=C2c3ccccc3Sc3ccccc32)=C(C#N)C#N)cc1 | > 100 µM (inactive) |

Query: GI50; subject: COc1cc2c(cc1O)C(=O)O[C@@H]1CC=C3CCN(C)[C@H]3[C@H]21
> 25 µM (inactive)

Query: GI50; subject: NC(=O)NC(=O)c1cccc(NC(=O)CI)c1
< 0.0252 µM (active)

Query: GI50; subject: COc1cccc(C(=O)O)c1Cc1cccc2ccccc12
> 100 µM (inactive)

====

Consider the following compounds and their measured GI50 readings.
- System: DU-145
- test.protocol: NCI tumour cell line growth inhibition, 48 h
Active and inactive are the calls of the source. Rule as the data show it: active = GI50 up to about 1.1 µM and inactive = higher.

Completed entries (count: 3):
| smiles.data | property | result |
| --- | --- | --- |
| CN(C)CCNc1nc(-c2ccc3ccccc3c2)nc2[nH]cnc12 | GI50 | 10.6 µM (inactive) |
| COc1cc(-c2oc(/C=N/c3ccccc3)c([N+](=O)[O-])c2-c2ccc(O)c(OC)c2)ccc1O | GI50 | 20.1 µM (inactive) |
| NCCCCCNOCCCN | GI50 | > 100 µM (inactive) |

# query: GI50 | item O=C1c2ccccc2S(=O)(=O)c2c1cccc2[N+](=O)[O-] | system: DU-145
4.79 µM (inactive)

====

- System: ACHN
- test.protocol: NCI tumour cell line growth inhibition, 48 h
The source made the active and inactive calls. Cut-off read from the data, not from the text of the source: active = GI50 up to about 1.1 µM and inactive = higher.
Consider the following molecules and their measured GI50 readings.

Completed entries (count: 3):
| molecule | result |
| --- | --- |
| Nc1nc(Cl)cc(NCC2(CO)CCC(O)C2)n1 (centres undefined) | > 100 µM (inactive) |
| Nn1c(CNc2ccc(-c3nnc(Nc4ccc(Cl)cc4)n3N)cc2)nnc1Nc1ccc(Cl)cc1 | > 100 µM (inactive) |
| Cc1ccc([Se][Se]c2ccc(C)cc2)cc1 | 25.3 µM (inactive) |

The record that follows has no GI50 shown yet.
Query: GI50; subject: NCC(=O)NC(CCCC(NC(=O)CN)P(=O)(O)O)P(=O)(O)O (centres undefined)
> 100 µM (inactive)

====

- Test system: MCF7
- test.protocol: NCI tumour cell line growth inhibition, 48 h
Calls of active or inactive are those of the source. No stated cut-off is given here; in the data, active = GI50 up to about 1.1 µM and inactive = higher.
Select the correct class. Options are 1 (active), 0 (inactive) and nothing else.

A selection of reference data follows.
| molecule | assay.target | assigned.category |
| --- | --- | --- |
| c1ccc2c(Nc3ccc(Oc4ccc(Nc5c6ccccc6nc6ccccc56)cc4)cc3)c3ccccc3nc2c1 | MCF7 | 1 |
| COc1ccc(/N=C2/C(=N/c3ccc(OC)cc3)N(c3ccccc3)C(=S)N2N=C=C2Sc3ccccc3N2C)cc1 | MCF7 | 0 |
| Cc1ccc2c(c1)C=CC(C#N)N2C(=O)Oc1ccccc1 (stereo unspecified) | MCF7 | 0 |
| O=S(=O)(c1cc(Cl)ccc1Cl)N1CCN(S(=O)(=O)c2cc(Cl)ccc2Cl)CC1 | MCF7 | 0 |
| CC1(C)[C@@H]2CC[C@@]1(C)CN(CCC[N+](C)(C)C)C2 | MCF7 | 0 |
| O=S(=O)(Nc1nc2ccccc2nc1Nc1cccc2ccccc12)c1ccccc1 | MCF7 | 0 |

Consider now this further molecule.
// return assay outcome for CN(C(=O)C12C3(C(=O)O)C4C5(C(=O)O)C3C1(C(=O)O)C5C42C(=O)O)C(C)(C)C (stereo unspecified)
0
